# assay details: circular dichroism
# applied conditions: Milli-Q water; pH ns; ns °C; 0.5 mM
Where a SMILES comes first, the peptide text is derived from it. Bridges are numbered along the chain shown (N, C = ends).

| molecule | unit label | helicity |
| --- | --- | --- |
| CC(C)C[C@H](NC(=O)[C@H](CCCCN)NC(=O)[C@H](CO)NC(=O)[C@@H](N)C(C)C)C(=O)N[C@@H](CCCNC(=N)N)C(=O)N[C@@H](CO)C(=O)N[C@H]1CCC(=O)NCCCC[C@@H](C(=O)N[C@@H](CCCCN)C(=O)N[C@@H](CCC(N)=O)C(=O)N[C@@H](CC(N)=O)C(N)=O)NC(=O)[C@H](CCCCN)NC(=O)[C@H](C(C)C)NC(=O)[C@H](CC(C)C)NC1=O (H-VSKLRSELVKKKQN-NH2; lactam 7-11) | MRE222 | -1570 |
| CC(C)C[C@@H]1NC(=O)[C@H](CCC(N)=O)NC(=O)[C@H](CO)NC(=O)[C@@H](NC(=O)[C@H](CC(C)C)NC(=O)[C@H](CCCCN)NC(=O)[C@H](CO)NC(=O)[C@@H](N)C(C)C)CCC(=O)NCCCC[C@@H](C(=O)N[C@@H](CCCCN)C(=O)N[C@@H](CCCNC(=N)N)C(=O)N[C@@H](CCCCN)C(=O)N[C@@H](CCC(N)=O)C(=O)N[C@@H](CC(N)=O)C(N)=O)NC1=O (H-VSKLESQLKKRKQN-NH2; lactam 5-9) | MRE222 | -4400 |
| CC(C)C[C@H](NC(=O)[C@H](CCCCN)NC(=O)[C@H](CO)NC(=O)[C@@H](N)C(C)C)C(=O)N[C@@H](CCCNC(=N)N)C(=O)N[C@H]1CCC(=O)NCCCC[C@@H](C(=O)N[C@@H](CCCNC(=N)N)C(=O)N[C@@H](CCCCN)C(=O)N[C@@H](CCC(N)=O)C(=O)N[C@@H](CC(N)=O)C(N)=O)NC(=O)[C@H](C(C)C)NC(=O)[C@H](CC(C)C)NC(=O)[C@H](CCC(N)=O)NC1=O (H-VSKLREQLVKRKQN-NH2; lactam 6-10) | MRE222 | -4400 |
| CC(C)[C@H](N)C(=O)N[C@@H](CO)C(=O)N[C@@H](CCCCN)C(=O)N[C@H]1CCC(=O)NCCCC[C@@H](C(=O)N[C@H](C(=O)N[C@@H](CCCCN)C(=O)N[C@@H](CCCNC(=N)N)C(=O)N[C@@H](CCCCN)C(=O)N[C@@H](CCC(N)=O)C(=O)N[C@@H](CC(N)=O)C(N)=O)C(C)C)NC(=O)[C@H](CCC(N)=O)NC(=O)[C@H](CO)NC(=O)[C@H](CCCNC(=N)N)NC1=O (H-VSKERSQKVKRKQN-NH2; lactam 4-8) | MRE222 | -2260 |

###

# assay details: Direct HA-binding ELISA of biotinylated peptides on HA coated plates (Example 4)
# Parameters: key: absorbance (color) read at 450 nm
# applied conditions: as repeated in tables 16, 18, 20
Bridges are numbered along the chain shown (N, C = ends).
measured endpoint: HA binding

| substance | measurement |
| --- | --- |
| Ac-NLKQKIKHVVKLKDENSQLKSEVSKLRSQLVKRKQN-NH2 [Compound 275] | 0.11 |
| Ac-(cyclo-11-15, cyclo-16-20)-KIKHVVKLKD[ENSQK][ESEVK]KLRSQLVKRIK-NH2 [Compound 267] | 0.01 |
| Ac-(cyclo-6,10)-VSKLR[EQLVK]RKQN-NH2 (Ac-VSKLREQLVKRKQN-NH2; lactam 6-10; SMILES CC(=O)N[C@H](C(=O)N[C@@H](CO)C(=O)N[C@@H](CCCCN)C(=O)N[C@@H](CC(C)C)C(=O)N[C@@H](CCCNC(=N)N)C(=O)N[C@H]1CCC(=O)NCCCC[C@@H](C(=O)N[C@@H](CCCNC(=N)N)C(=O)N[C@@H](CCCCN)C(=O)N[C@@H](CCC(N)=O)C(=O)N[C@@H](CC(N)=O)C(N)=O)NC(=O)[C@H](C(C)C)NC(=O)[C@H](CC(C)C)NC(=O)[C@H](CCC(N)=O)NC1=O)C(C)C) [Compound 152] | 0.005 |
| Ac-(cyclo-4,8)-NLK[EKIKK]VVKLKDE-NH2 (Ac-NLKEKIKKVVKLKDE-NH2; lactam 4-8; SMILES CC[C@H](C)[C@@H]1NC(=O)[C@H](CCCCN)NC(=O)[C@@H](NC(=O)[C@H](CCCCN)NC(=O)[C@H](CC(C)C)NC(=O)[C@H](CC(N)=O)NC(C)=O)CCC(=O)NCCCC[C@@H](C(=O)N[C@H](C(=O)N[C@H](C(=O)N[C@@H](CCCCN)C(=O)N[C@@H](CC(C)C)C(=O)N[C@@H](CCCCN)C(=O)N[C@@H](CC(=O)O)C(=O)N[C@@H](CCC(=O)O)C(N)=O)C(C)C)C(C)C)NC(=O)[C@H](CCCCN)NC1=O) [Compound 157] | 0.02 |

###

# assay details: Circular dichroism (CD) spectroscopy of HABD2 peptides in Milli-Q water (Example 1)
# Assay type: physicochemical
# applied conditions: 0.5 mM in Milli-Q water; equations 1-3
Bridges are numbered along the chain shown (N, C = ends).

| substance | fH fraction helicity |
| --- | --- |
| H-(cyclo-5,9)-VSKL[ESQLK]KRKQN-NH2 (H-VSKLESQLKKRKQN-NH2; lactam 5-9; SMILES CC(C)C[C@@H]1NC(=O)[C@H](CCC(N)=O)NC(=O)[C@H](CO)NC(=O)[C@@H](NC(=O)[C@H](CC(C)C)NC(=O)[C@H](CCCCN)NC(=O)[C@H](CO)NC(=O)[C@@H](N)C(C)C)CCC(=O)NCCCC[C@@H](C(=O)N[C@@H](CCCCN)C(=O)N[C@@H](CCCNC(=N)N)C(=O)N[C@@H](CCCCN)C(=O)N[C@@H](CCC(N)=O)C(=O)N[C@@H](CC(N)=O)C(N)=O)NC1=O) [Compound 134] | 0.22 |

###

# assay details: Circular dichroism (CD) spectroscopy of HABD2 peptides in Milli-Q water (Example 1)
# Format: physicochemical
# applied conditions: λ = 192 nm; 0.5 mM in Milli-Q water
# Text: In addition, a large mean residue ellipticity indicates greater α-helical character. […] This was predicted to be the case, as there is a lack of contributing residues that might form a hydrophobic core, thereby helping to stabilize the secondary structure of the linear peptide. For this reason, bridges were introduced into the peptides. […] A peptide's α-helicity can be quantified using equations 1-3: fH=[([θ]obs222−[θ]c)/([θ]max222−[θ]c)] […]
Bridges are numbered along the chain shown (N, C = ends).
measured endpoint: Molar ellipticity [θ]192

| substance | measurement |
| --- | --- |
| H-(cyclo-5,9)-VSKL[ESQLK]KRKQN-NH2 (H-VSKLESQLKKRKQN-NH2; lactam 5-9; SMILES CC(C)C[C@@H]1NC(=O)[C@H](CCC(N)=O)NC(=O)[C@H](CO)NC(=O)[C@@H](NC(=O)[C@H](CC(C)C)NC(=O)[C@H](CCCCN)NC(=O)[C@H](CO)NC(=O)[C@@H](N)C(C)C)CCC(=O)NCCCC[C@@H](C(=O)N[C@@H](CCCCN)C(=O)N[C@@H](CCCNC(=N)N)C(=O)N[C@@H](CCCCN)C(=O)N[C@@H](CCC(N)=O)C(=O)N[C@@H](CC(N)=O)C(N)=O)NC1=O) [Compound 134] | 1002.14 deg cm^2 dmol^−1 residue^−1 |
| H-(cyclo-6,10)-VSKLR[EQLVK]RKQN-NH2 (H-VSKLREQLVKRKQN-NH2; lactam 6-10; SMILES CC(C)C[C@H](NC(=O)[C@H](CCCCN)NC(=O)[C@H](CO)NC(=O)[C@@H](N)C(C)C)C(=O)N[C@@H](CCCNC(=N)N)C(=O)N[C@H]1CCC(=O)NCCCC[C@@H](C(=O)N[C@@H](CCCNC(=N)N)C(=O)N[C@@H](CCCCN)C(=O)N[C@@H](CCC(N)=O)C(=O)N[C@@H](CC(N)=O)C(N)=O)NC(=O)[C@H](C(C)C)NC(=O)[C@H](CC(C)C)NC(=O)[C@H](CCC(N)=O)NC1=O) [Compound 135] | 1245.85 deg cm^2 dmol^−1 residue^−1 |
| Ac-VSKLRSQLVKRKQN-NH2 [Compound 132] | −433.48 deg cm^2 dmol^−1 residue^−1 |
| H-(cyclo-4,8)-VSK[ERSQK]VKRKQN-NH2 (H-VSKERSQKVKRKQN-NH2; lactam 4-8; SMILES CC(C)[C@H](N)C(=O)N[C@@H](CO)C(=O)N[C@@H](CCCCN)C(=O)N[C@H]1CCC(=O)NCCCC[C@@H](C(=O)N[C@H](C(=O)N[C@@H](CCCCN)C(=O)N[C@@H](CCCNC(=N)N)C(=O)N[C@@H](CCCCN)C(=O)N[C@@H](CCC(N)=O)C(=O)N[C@@H](CC(N)=O)C(N)=O)C(C)C)NC(=O)[C@H](CCC(N)=O)NC(=O)[C@H](CO)NC(=O)[C@H](CCCNC(=N)N)NC1=O) [Compound 133] | 1733.35 deg cm^2 dmol^−1 residue^−1 |
